Origin of measurements: ChEMBL document CHEMBL1961873

# Target entity: MAP kinase-activated protein kinase 5 (Homo sapiens);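 note: mean inhibition of PRAK measured in the GSK PKIS screen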
# Condition notes: at 1 µM
# inhibition values compiled below
Give the number; % is assumed, so skip it.

COc1cccc(COc2cc(-n3cnc4ccccc43)sc2C(N)=O)c1 | -0.81

Req: Using known records, supply inhibition for COc1cc(C=NNc2ncnc3c2cnn3Cc2ccccc2)ccc1O
Resp: -1.84

Req: Identify inhibition associated with the molecule Cc1cc(-c2ccco2)cc(C)c1/C=C/c1cncc(-c2nn[nH]n2)c1
Resp: 0.28

Req: Note inhibition for the molecule shown: NS(=O)(=O)c1ccc(N/C=C2\C(=O)Nc3ccc4ncsc4c32)cc1
Resp: 7.16

Req: Fill in reported inhibition for this entry: NC(=O)c1sc(-n2cnc3cc(C(F)(F)F)ccc32)cc1OCc1ccccc1Br
Resp: 0.76

Req: Tell me inhibition reported for COc1cccc(-n2ncc3c(N/N=C/c4ccncc4)ncnc32)c1
Resp: 3.04

Req: Give the measured inhibition for CCn1c(-c2nonc2N)nc2c(C#CC(C)(C)O)nc(O[C@@H](CN)c3ccccc3)cc21
Resp: -1.11

Req: # return recorded inhibition for input COc1cc2c(cc1Nc1nc(Nc3ccsc3C(N)=O)c3cc[nH]c3n1)N(C(=O)CN(C)C)CCC2
Resp: 1.23

Req: # return recorded inhibition for entry CCn1c(-c2nonc2N)nc2c(C#CCN)ncc(OCCCN)c21
Resp: 1.09

Req: Return inhibition (reported value) for this molecule: NS(=O)(=O)c1ccc(-c2ccc3c(NC(=O)C4CC4)n[nH]c3c2)cc1
Resp: 0.89

###

# Target entity: Mitogen-activated protein kinase 1 (Homo sapiens);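 note: reported figure is an averaged percent inhibition of the kinase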
# Condition notes: at 0.1 µM
Measure: inhibition (%)
Enter your answer as a number in %; do not include the unit.

CCn1c(-c2nonc2N)nc2c(C#CCN)ncc(OCCCN)c21 | -2.43
Fc1ccc(-c2ncn(C3CCNCC3)c2-c2ccnc(Oc3ccccc3)n2)cc1 | 2.78
COc1cccc(COc2cc(-n3cnc4ccccc43)sc2C(N)=O)c1 | 1.13
COc1cc(C=NNc2ncnc3c2cnn3Cc2ccccc2)ccc1O | 2.37
COc1cccc(-n2ncc3c(N/N=C/c4ccncc4)ncnc32)c1 | 5.32

Req: Write down inhibition measured for item CCn1c(-c2nonc2N)nc2c(C#CC(C)(C)O)ncc(OCC3CCNCC3)c21
Resp: 5.25

Req: Could you please provide reported inhibition for NS(=O)(=O)c1ccc(-c2ccc3c(NC(=O)C4CC4)n[nH]c3c2)cc1 ? Thanks!
Resp: 2.15

Req: Dear colleague, please send me the reported inhibition for CCn1c(-c2nonc2N)nc2c(C#CC(C)(C)O)ncc(OC[C@@H]3CCCN3)c21 when you can.
Resp: 1.59

Req: Give the measured inhibition for NS(=O)(=O)c1ccc(N/C=C2\C(=O)Nc3ccc4ncsc4c32)cc1
Resp: 8.37

Req: # return recorded inhibition for entry CCn1c(-c2nonc2N)nc2c(C#CC(C)(C)O)nc(O[C@@H](CN)c3ccccc3)cc21
Resp: -1.73

###

# Target entity: Serine/threonine-protein kinase Chk2 (Homo sapiens)
# Condition notes: at 0.1 µM
# Description: GSK_PKIS: CHEK2 mean inhibition at 0.1 uM [Nanosyn]
Measure: inhibition

Please review the entries below; each comes with its answer.
COc1cc(C=NNc2ncnc3c2cnn3Cc2ccccc2)ccc1O | -3.42%
CCn1c(-c2nonc2N)nc2c(C#CC(C)(C)O)ncc(OC[C@@H]3CCCN3)c21 | 0.37%
NS(=O)(=O)c1ccc(-c2ccc3c(NC(=O)C4CC4)n[nH]c3c2)cc1 | 1.56%

Kindly consider the entry below.
Req: Let me know recorded inhibition for NC(=O)c1sc(-n2cnc3cc(C(F)(F)F)ccc32)cc1OCc1ccccc1Br , thanks.
Resp: 1.22%
